Where these numbers come from: ChEMBL document CHEMBL5316297

Test: Tmax in Swiss albino mouse plasma at 0.2 mmol/Kg, po measured after 24 hrs by HPLC analysis
Assay type: ADME, organism-based

{"Smiles structure": "CCOC(=O)C1=C(C)NC(C)=C(C(=O)OCC)C1c1cccc2c1OCO2", "Tmax (min)": 48}

----------
Listing: GI50 of selected compounds
Test: Cytotoxicity against HEK293 cells assessed as cell growth inhibition
Type: toxicity, cell-based
Conditions: human
Outcome measure: GI50 (µM)

{"Compound": "CCOC(=O)C1=C(C)NC(C)=C(C(=O)OCC)C1c1cccc2c1OCO2", "Outcome measure": "GI50", "Unit name": "µM", "Result number": 19.7}
{"Compound": "COc1cccc2c1C(=O)c1c(O)c3c(c(O)c1C2=O)C[C@@](O)(C(=O)CO)C[C@@H]3O[C@H]1C[C@H](N)[C@H](O)[C@H](C)O1 [DOXORUBICIN]", "Outcome measure": "GI50", "Unit name": "µM", "Result number": 9.69}
